Data origin: the supplement of paper PMC10567573

Assay: protein stability index of a GFP-peptide fusion (GPS, HEK-293T) (PSI 1-6); higher = more stable;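 note: 24-mer peptide tiles fused after GFP, lentivirally expressed, FACS-sorted into six equal bins by GFP/DsRed ratio, decoded by Illumina sequencing, PSI is the read-weighted mean bin number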
Conditions: treatment: MLN4924 1 uM, 8 h; c terminus: a fixed tail appended
Measured Property: protein stability index
Give your answer as a number; write no unit.

# count of solved cases: 5
LASGLVVFFLFPHSVLVDDDGIKV [TMEM106C] ... 2.86
LLMLENFIDGKFLPCSSYIDSYDP [ALDH8A1] ... 2.05
QILEGELFDFDLEVKPVLEVLVGK [RSPH3] ... 2.37
TERMDKVGDALEEVLSKALSQRTI [GADD45A] ... 3.83
KNHEEEMLALRGQTGGDVNVEMDA [KRT16] ... 5.6

Consider the additional sequence presented here.
Item SQPIDLSACTVALHIFQLNEDGPS [TRIP13] : provide protein stability index
2.51

====

Assay: protein stability index of a GFP-peptide fusion (GPS, HEK-293T) (PSI 1-6); higher = more stable
Conditions: treatment: DMSO; c terminus: a fixed tail appended
Measured Property: protein stability index

# count of solved cases: 3
PQLASLCLDTIDKSTMDAISAEGF [BTBD1] ... 3.98
TKHIHITQATETTTTRHKRTANPS [CLINT1] ... 4.6
EAPDSLNGPLGPSEASIASNLQAM [SMG5] ... 4.99

Item GCSLHEEDTQRHETYHQQGQCQVL [TCAP] : provide protein stability index
4.35

Item TPAGLPPSRAKPPTEGAGSPAKAS [FBF1] : provide protein stability index
5.38

Item LYLVGFLDLFGVSMVVPLLSLHVK [MFSD9] : provide protein stability index
3.61

Item GLADVEANYVIVRAYQYTTLTSVQ [SLC35F2] : provide protein stability index
2.24

Item ISPRGAGYTFGQDISETFNHANGL [PPP2CA] : provide protein stability index
3.17

Item NTRNYEGQTPLAVSISISGSSRPC [ASB7] : provide protein stability index
3.23

Item ARSGHRCVADNTNLYVFGGYNPDY [KLHDC10] : provide protein stability index
2.23

Item HVFQRQKSELSDGIAILVGSNDRV [TRIM55] : provide protein stability index
3.18

====

Listed sequences paired with reported protein stability index
Assay: protein stability index of a GFP-peptide fusion (GPS, HEK-293T) (PSI 1-6); higher = more stable
Conditions: treatment: MLN4924 1 uM, 8 h; c terminus: a fixed tail appended
Give your answer as a number; write no unit.

DLLLWIQKHTEVETVDLVLKLKNK [DENND6A] ... 2.21
LHLPIMGVVMKVRIPTCHDKPGTT [DENND6A] ... 2.25
HGEADRSTLKKALPTLSHIQEAQS [YJU2B] ... 4.7
PLNRFSSVPLDPMERPMSQADLEL [CBY2] ... 4.53
FGVKYNPYTRSIQILKDTKSITSA [TPH1] ... 2.46

Item VPTPKSHLQLLGAVCMFLASKLKE [CCND2] : provide protein stability index
1.92

Item GLPGKVFACLSVLFVTVTAVNLSV [KCNG1] : provide protein stability index
3.05

====

Test: protein stability index of a GFP-peptide fusion (GPS, HEK-293T) (PSI 1-6); higher = more stable
Conditions: treatment: DMSO; c terminus: a fixed tail appended
Param threshold (3) applies to protein stability index; output fulfilled when value >= threshold, not fulfilled when value < threshold.

NILVTSGGTVKLADFGLARIYSYQ [CDK4] ... not fulfilled
HLSPLVVHRQLSHLYAEPQKSPWC [ESR2] ... not fulfilled
TFALYKNGSSEKREVRQFQFTAWP [PTPRD] ... not fulfilled
SKRMGPMTVVRMDASVQPGPFRTL [RHOBTB1] ... not fulfilled
KRPAPRTAPRQEKHERTHEIIPIN [SPRY1] ... fulfilled
GGFMGYSAENIPGCSSSGSCSQGS [CRY1] ... fulfilled

Please find the next sequence below.
Has SLSRNNSFRRNVGRVLLANSTQAD [FBXO34] a recorded protein stability index greater than or equal to 3?
fulfilled

====

Test: protein stability index of a GFP-peptide fusion (GPS, HEK-293T) (PSI 1-6); higher = more stable
Conditions: treatment: MLN4924 1 uM, 8 h; c terminus: a fixed tail appended
Param threshold (3) applies to protein stability index; output True when value >= threshold, False when value < threshold.

Answered cases to consult:
RLQELCHGWLRPEMRTKEQILELL [ZNF263] ... False
AWLPQAKVPFSQEIKDLILPKISD [PI4K2A] ... False

Has KDQQTFARSVGLKWRKVGRSLQRG [TRADD] a recorded protein stability index greater than or equal to 3?
True

Has RSDLYSSGRDRVGRQERGLPPSME [RBMX] a recorded protein stability index greater than or equal to 3?
True

Has DAASVYTLPAGADFLMCYSVAEGY [CASP6] a recorded protein stability index greater than or equal to 3?
False

Has TFALYKNGSSEKREVRQFQFTAWP [PTPRD] a recorded protein stability index greater than or equal to 3?
False

Has RTVAVGDIVWGKIHGFPWWPARVL [PWWP2B] a recorded protein stability index greater than or equal to 3?
False

Has SIGALISKAHLEKVRSYVKRALAE [ALDH8A1] a recorded protein stability index greater than or equal to 3?
False

Has EDGPGKEEAPELDEAELDYLMDVL [SERTAD1] a recorded protein stability index greater than or equal to 3?
True

Has ADYFATFVQREEQLQFLIRYHRFI [CDS1] a recorded protein stability index greater than or equal to 3?
False

====

Assay: protein stability index of a GFP-peptide fusion (GPS, HEK-293T) (PSI 1-6); higher = more stable
Settings: treatment: MLN4924 1 uM, 8 h; c terminus: a fixed tail appended
Param threshold (3) applies to protein stability index; output Condition met when value >= threshold, Condition not met when value < threshold.

LTAFICFLVFILNAGLVWFFPWRE [MFSD9] ... Condition not met
MALQLGRLSSGPCWLVARGGCGGP [CPOX] ... Condition not met
GGRTALHHAALNGHVEMVNLLLAK [ANKRD44] ... Condition not met
CVVCGDKSSGKHYGQFTCEGCKSF [NR2F2] ... Condition met
DRGPKGEKGEKGDRAGDASKDILL [SCARA5] ... Condition met
QLSATGQKLYVRLFQRKLSWIKMT [FAN1] ... Condition not met

Has EEAAMQKCLVTEAQTLLRLSGVQR [RSAD1] a recorded protein stability index greater than or equal to 3?
Condition met

Has SMEKDATLNVDRKEKCVSLPDCCH [DLC1] a recorded protein stability index greater than or equal to 3?
Condition met

Has QVETSIEGTIPFSKPVKVYIMPKP [INTS4] a recorded protein stability index greater than or equal to 3?
Condition not met

Has VVLDRHGVYGLQRNLLVENIIDIY [TRIM55] a recorded protein stability index greater than or equal to 3?
Condition not met

Has QQPPRLLIVHIALPSWADICTNLC [M1AP] a recorded protein stability index greater than or equal to 3?
Condition not met

Has KDGKLLAATLLLALLSCCLTVVSF [TNFSF13B] a recorded protein stability index greater than or equal to 3?
Condition met

Has AQTLLRLSGVQRVESVFFGGGTPS [RSAD1] a recorded protein stability index greater than or equal to 3?
Condition not met

====

Assay: protein stability index of a GFP-peptide fusion (GPS, HEK-293T) (PSI 1-6); higher = more stable
Conditions: treatment: DMSO; c terminus: a fixed tail appended
Measured Property: protein stability index
Give your answer as a number; write no unit.

# count of solved cases: 2
MDRKTRFIIHGFIDKGDESWVTDM [PNLIPRP1] ... 2.48
EKFDIVKKWGINTYKCTKQLLSER [ARFIP2] ... 2.78

Item EMDWAQMACHRCLVYLGDLSRYQN [SMG5] : provide protein stability index
2.36

Item KDIAGEFKEQLQALIPYVLNPSKL [ATL3] : provide protein stability index
2.19

Item LRFTSGLVVALDVDATLEHVQDPQ [INTS4] : provide protein stability index
2.09

Item KKMEQNKTAATRYRQKKRAEQEAL [ATF4] : provide protein stability index
4.48

Item LRDRAERIASRAIDNAADLLIFGK [SNX8] : provide protein stability index
3.28

Item GTEYTCKVYPVQEALAVLEPYARL [TRIB3] : provide protein stability index
2.62

====

Test: protein stability index of a GFP-peptide fusion (GPS, HEK-293T) (PSI 1-6); higher = more stable
Conditions: treatment: DMSO; c terminus: a fixed tail appended
Measured Property: protein stability index
Give your answer as a number; write no unit.

# count of solved cases: 5
TEISFILGQEFDEVTADDRKVKST [FABP4] ... 4.24
RVYFLKGGYETFYSEYPECCVDVK [DUSP5] ... 2.09
DSDNSGGGGGGGGGGGGGGGTSSN [ANKRD17] ... 5.39
PLNRFSSVPLDPMERPMSQADLEL [CBY2] ... 4.47
IVKQQDPLVYKAIQQGINAVNQEA [ACSBG2] ... 3.75

Item NCLGIRAFADTHSCRELLRIADKF [KLHL20] : provide protein stability index
2.3

Item WWTNWVIPAISAVAVALMYRLYMA [CYB5A] : provide protein stability index
3.22

Item DLLLWIQKHTEVETVDLVLKLKNK [DENND6A] : provide protein stability index
2.57

Item QILEGELFDFDLEVKPVLEVLVGK [RSPH3] : provide protein stability index
2.13

Item KIRKIHTQRQYKEDESQSEEENDY [CEP70] : provide protein stability index
5.14

Item LTAFICFLVFILNAGLVWFFPWRE [MFSD9] : provide protein stability index
2.23

Item RNGSERVVTSAREHIYDLRSLENY [CLINT1] : provide protein stability index
3.5

Item TSIGDGPLSSDIQVITQTGVPGQP [PTPRD] : provide protein stability index
4.6
